pKi: −log10 of the molar value.
What follows is a record of pKi for Envelope glycoprotein gp160 (Human immunodeficiency virus 1, UniProt Q6QLK5).
measure: pKi

- smiles input: "COc1cc(Cn2ccc3ccc(-c4ccc5ccn(Cc6cccc(C(=O)O)c6)c5c4)cc32)cc(C(=O)O)c1"
  value: 6.10
- smiles input: "CC(C)(C)OC(=O)N1CCC(Cn2ccc3ccc(-c4ccc5ccn(Cc6cccc(C(=O)O)c6)c5c4)cc32)CC1"
  value: 5.92
- smiles input: "COC(=O)c1cccc(Cn2ncc3ccc(-c4ccc5ccn(Cc6cccc(C(=O)O)c6)c5c4)cc32)c1"
  value: 6.00
- smiles input: "COC(=O)c1cc(Cn2ccc3ccc(-c4ccc5ccn(Cc6cccc(C(=O)O)c6)c5c4)cc32)cc(C(=O)OC)c1"
  value: 6.00
